Test system: TXK;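 also: KINOMEscan kinase panel screen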
PROTOCOL_CONDITIONS: concentration: 1 μM, replicates: in singlicate; n = 1
Listed below: %Inh values for each entry.
MEASURED_ENDPOINT: %Inh (%)

INSERT INTO assay_data (compound, uom, readout_value) VALUES
  ('COc1cc(Nc2nccc(N3CCC(NC(=O)C4COc5ccccc5O4)C3)n2)cc(OC)c1OC (centres unmarked)', '%', 10),
  ('COc1cc2nccc(Nc3cccc(Oc4ccccc4)c3)c2cc1OC.Cl', '%', 3),
  ('Cc1ccc(Oc2ccc(Nc3ncnc4cc[nH]c34)cc2C)cn1', '%', 6),
  ('COc1cc2ncn(-c3cc(OCc4ccncc4)c(C(N)=O)s3)c2cc1OC', '%', 6),
  ('COc1cc(Nc2ccnc3ccc(C(F)(F)F)cc23)cc(OC)c1OC', '%', 54),
  ('COc1cccc(C2=C(N(C)c3ccccc3)C(=O)NC2=O)c1', '%', 22),
  ('CCC(=O)c1c(-c2ccccc2)c2cc(Cl)ccc2c(=O)n1Cc1cc(S(C)(=O)=O)n(CC(F)F)n1', '%', 6),
  ('COc1ccc(-c2coc3ccc(-c4nnc(SCc5cccc(C#N)c5)o4)cc23)cc1', '%', 2),
  ('Cc1cccc(-c2cc(-c3c[nH]nc3-c3ccccn3)ccn2)c1', '%', 0),
  ('CCn1c(-c2ccoc2)nc2cnccc21', '%', 28),
  ('COc1ccc(-n2cnc3c(N)ncnc32)cc1', '%', 12),
  ('COC(=O)c1c(-c2ccccc2)c2cc(Br)ccc2c(=O)n1Cc1ccc(S(C)(=O)=O)cc1', '%', 12),
  ('Nc1ncnc2c1ncn2-c1cccc(F)c1', '%', 0),
  ('OCCCNc1nccc(-c2c(-c3cccc(C(F)(F)F)c3)nn3cc(C(F)(F)F)ccc23)n1', '%', 0),
  ('C[C@@H]1CC[C@H](C(=O)NC2CCCCC2)CN1c1cc(-c2ccc3c(N)n[nH]c3c2)nc(N)n1', '%', 6),
  ('COc1ccc(Nc2nccc(N3CCC(NS(=O)(=O)c4ccc(NC(C)=O)cc4)C3)n2)cc1 (centres unmarked)', '%', 35),
  ('CN(C)c1cc(-c2ccc3c(N)n[nH]c3c2)nc(N)n1', '%', 97.2);
